This collection of values is drawn from patent US20050288307A1.

- Measured target: CDK2/cyclin A (Homo sapiens)
- Assay text: CDK2/cyclin A kinase assay
- Format: biochemical
- Details: Table 3; read-out: Average IC50 CDK2 cyclin A2
pIC50: −log10 of the molar value.
# cutoff 5 applies to pIC50; >= gives fulfilled, < gives not fulfilled

Take a look at these entries with their results.
| Smiles text | Category label |
| --- | --- |
| CCCCNc1nc(C)c(-c2ccnc(Nc3ccc(F)cc3)n2)s1 | not fulfilled |
| CCNc1nc(C)c(-c2ccnc(Nc3cccc(OC)c3)n2)s1 | not fulfilled |
| Cc1nc(N)sc1-c1ccnc(Nc2ccc(CCO)cc2)n1 | fulfilled |

[Q] Reported pIC50 at or above 5? COc1cccc(Nc2nccc(-c3sc(N)nc3C)n2)c1
[A] fulfilled

[Q] Reported pIC50 at or above 5? Cc1nc(N)sc1-c1ccnc(Nc2cccc(F)c2)n1
[A] fulfilled

[Q] Reported pIC50 at or above 5? CNc1nc(C)c(-c2ccnc(Nc3cccc(C(F)(F)F)c3)n2)s1
[A] not fulfilled

[Q] Reported pIC50 at or above 5? CCN(CCO)c1ccc(Nc2nccc(-c3sc(C)nc3C)n2)cc1
[A] fulfilled

[Q] Reported pIC50 at or above 5? Cc1nc(C)c(-c2ccnc(Nc3cccc(C#N)c3)n2)s1
[A] fulfilled

###

- Measured target: CDK2/cyclin A (Homo sapiens)
- Assay text: CDK2/cyclin A kinase assay;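 note: Read-out is incorporated radioactivity retained on P81 filter plates and quantified by scintillation counting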
- Type: biochemical
- Details: Table 3; read-out: Average IC50 CDK2 cyclin A2
Quantity kind: pIC50
To interpret pIC50, take it as minus log10 of a concentration measured in moles per litre.

Some entries whose results are on file:
| Smiles text | Quantity kind | Measured number |
| --- | --- | --- |
| Cc1nc(C)c(-c2ccnc(Nc3ccccc3)n2)s1 | pIC50 | 6.39 |
| COc1ccc(Nc2nccc(-c3sc(C)nc3C)n2)cc1OC | pIC50 | 6.59 |
| Cc1nc(C)c(-c2ccnc(Nc3ccc(CCO)cc3)n2)s1 | pIC50 | 6.24 |

Note to self: pIC50 of COc1ccc(Nc2nccc(-c3sc(C)nc3C)n2)cc1N(C)C with CDK2/cyclin A (Homo sapiens) was 6.17

###

Entries below carry reported IC50 on PKC (Homo sapiens, UniProt P17252).
Write it as a number; the unit µM goes unstated.

Note to self: IC50 of Cc1nc(C)c(-c2ccnc(Nc3ccc(F)cc3F)n2)s1 with PKC (Homo sapiens, UniProt P17252) was 40

Note to self: IC50 of Cc1nc(N)sc1-c1ccnc(Nc2cccc(O)c2)n1 with PKC (Homo sapiens, UniProt P17252) was 33

Note to self: IC50 of Cc1nc(C)c(-c2ccnc(Nc3cccc([N+](=O)[O-])c3)n2)s1 with PKC (Homo sapiens, UniProt P17252) was 35

###

- Assay text: Compound cytotoxicity in PBMC assay plates (MTS cell viability)
- Details: human, TC50 (concentration decreasing cell viability by 50%), HIV-1RoJo/PBMC
The following compounds are listed with their measured CC50 at 7 days values.
Write it as a number; the unit µM goes unstated.

Some entries whose results are on file:
| Compound | Unit name | Measured number |
| --- | --- | --- |
| COc1ccc(Nc2nccc(-c3sc(C)nc3C)n2)cc1OC [Compound 125] | µM | 27 |
| Cc1nc(C)c(-c2ccnc(Nc3ccc(O)cc3)n2)s1 [Compound 28] | µM | 22 |
| Cc1nc(C)c(-c2ccnc(Nc3ccc(N(C)C)c(Cl)c3)n2)s1 [Compound 128] | µM | 4.3 |

Could you now consider this next compound?
get_value(item= Cc1nc(C)c(-c2ccnc(Nc3ccc(I)cc3)n2)s1 [Compound 21] , readout=CC50 at 7 days) returns 31
